All values here come from ChEMBL document CHEMBL4513216.

PROCEDURE SUMMARY: Toxicity liver stage against HepG2, at 10uM
Type: cell-based
Set-up: test concentration 10 uM, cell line HepG2-A16-CD81EGFP
SETTINGS: human, HepG2-A16-CD81EGFP cells; read-out: INHIBITION
# cytotoxicity at 10 µM per record follows
# unit: % | format: bare number

Below: 4 compounds and their reported cytotoxicity at 10 µM.
{"columns": ["COMPOUND", "MEASUREMENT NAME", "RESULT UNITS", "RECORDED NUMBER"],
 "data": [
  ["CN(C(=O)Cc1ccc(NC(=O)NC2CC2)cc1)c1ccccc1", "cytotoxicity at 10 µM", "%", 6.35],
  ["O=C(N1CCCO1)[C@]12COC[C@H]1CN(Cc1nccs1)C2", "cytotoxicity at 10 µM", "%", 9.31],
  ["Nc1cc2c(nn1)CCN(C(=O)c1cccc3c1OCO3)C2", "cytotoxicity at 10 µM", "%", -8.08],
  ["CC(C)NC(=O)[C@H]1C[C@H]2OCC[C@H]2N(Cc2ccc3ccccc3n2)C1", "cytotoxicity at 10 µM", "%", -56.3]
]}

Lab note: next compound to report on.
query: Sample COC(=O)c1ccc(S(=O)(=O)NCC(C)(O)c2cccs2)cc1 (stereo not given) — what was its cytotoxicity at 10 µM?
result: -6.87

###

PROCEDURE SUMMARY: Toxicity liver stage against HepG2, at 10uM
Type: cell-based
Set-up: test concentration 10 uM, cell line HepG2-A16-CD81EGFP
SETTINGS: human, HepG2-A16-CD81EGFP cells; read-out: INHIBITION
MEASUREMENT NAME: cytotoxicity at 10 µM (%)
Could you give me the number in %? Just the number is fine.

Solved cases (5 shown):
{"columns": ["COMPOUND", "RESULT UNITS", "cytotoxicity at 10 µM"],
 "data": [
  ["CCCN1CCC(N2CCC(Cn3cc(CC(C)O)nn3)CC2)CC1 (stereo not drawn)", "%", -1.89],
  ["Cc1cnn(CC2CCCN2CCCc2nc3ccccc3o2)c1 (stereo not drawn)", "%", -6.19],
  ["O=C(O)CCc1cccc(C2CCCN2Cc2cccc(Cl)c2)n1 (stereo not drawn)", "%", -22.6],
  ["CCC(CN1CCCC1)NC(=O)Cc1c(C)[nH]c2c(C)cc(C)cc12 (stereo not drawn)", "%", 14.6],
  ["O=C(CN1C=Nc2ccccc2S1(=O)=O)NCC1CC1", "%", -10.2]
]}

query: I'd like to know its cytotoxicity at 10 µM. The compound in question is `CN(C)c1cc(C(=O)Nc2ccccc2C(=O)NC(C)(C)C)ccn1`
result: 2.46

query: What value of cytotoxicity at 10 µM has been recorded for this entry: `NCC(=O)N1CCC2(CC1)CN(C(=O)Cc1ccc(Cl)cc1)CCO2`
result: 5.56

###

PROCEDURE SUMMARY: Toxicity liver stage against HepG2, at 10uM
Assay type: cell-based
Set-up: test concentration 10 uM, cell line HepG2-A16-CD81EGFP
SETTINGS: human, HepG2-A16-CD81EGFP cells; read-out: INHIBITION
MEASUREMENT NAME: cytotoxicity at 10 µM (%)
Value expressed in %; do not type the unit.

Reference set, count: 4
{"columns": ["COMPOUND", "cytotoxicity at 10 µM (%)"],
 "data": [
  ["CC(C)(C)c1nnc2n1C(C(=O)N1CCOCC1)CC2 (stereo not given)", 1.52],
  ["COCC(NC(=O)c1cn(-c2cccc(Cl)c2F)nn1)C1CC1 (stereo not given)", 11.1],
  ["Cc1noc(CNC2CCCN(Cc3noc(C4CC4)n3)C2)n1 (stereo not given)", -1.7],
  ["CCn1ccnc1CNc1nccc(-c2c(C)nn(C)c2C)n1", -0.0793]
]}

query: Returns the measured cytotoxicity at 10 µM for the input compound. Input: COc1c(C2CCCN2Cc2cccc(C(N)=O)c2)c(C)nn1C (stereo not given)
result: -8.18

query: Would you kindly share the measured cytotoxicity at 10 µM for Fc1cccc(-c2nnn3c2COCC(CNCc2nccs2)C3)c1 (stereo not given) ?
result: -112

query: Give its cytotoxicity at 10 µM value. Item: `Cc1ccccc1NS(=O)(=O)c1cc2c(c(C(=O)O)c1)OCCO2`
result: -11.7

query: // query cytotoxicity at 10 µM value for entry `Cc1nc2ccc(C(=O)N3C[C@@H](O)[C@H](N4CCN(C)CC4)C3)cc2[nH]1`
result: -27.5

query: Requested field: cytotoxicity at 10 µM. Item: `COCCCN1CCC(NC(=O)C(C)C)CC1`
result: -11.9

query: // cytotoxicity at 10 µM lookup, key: Cc1ncnc(NC(CC(C)(C)C)c2cccnc2)c1C (stereo not given)
result: 1.65

query: Look up cytotoxicity at 10 µM: CC(C)CCNC(=O)NC(C)c1nncn1C (stereo not given)
result: -9.9

query: Entry `CCC(=O)N1CCC(O)(c2ncc(OC)nc2OC)CC1` : reported cytotoxicity at 10 µM = ?
result: 3.03

query: Query (compound): COCCCNC(=O)N1CCCC(c2nncn2C)C1 (stereo not given) ; field requested: cytotoxicity at 10 µM
result: -19.7

query: If you can, please state the reported cytotoxicity at 10 µM value of `CN(C)C(=O)CN1CCc2onc(-c3ccccc3F)c2C1` .
result: 2.45

query: Field request: cytotoxicity at 10 µM | item: `COCCOc1ccc(NC(=O)C2CCC2)cn1`
result: -9.65

query: Returns the measured cytotoxicity at 10 µM for the input compound. Input: `CCN(C)C[C@@H]1CN(C(=O)NC2CCCCC2)C[C@@H]1CO`
result: -1.53

query: So what's the measured cytotoxicity at 10 µM for this one? `CCNC(=O)NC(C)(C)C(=O)NCCc1csc2ccccc12`
result: -15.5

query: Which cytotoxicity at 10 µM value belongs to Fc1cnc(N2CCCC3(CCN(c4ncccn4)C3)C2)nc1 (stereo not given) ?
result: -113

query: Suppose we examine the compound `CS(=O)(=O)N1CCCN(c2nccn3cnnc23)CC1` ; what cytotoxicity at 10 µM value has been reported?
result: -8.85

query: What does the record list as cytotoxicity at 10 µM for `COCc1ncc(-c2nccn2CCn2cnnc2)cn1` ?
result: 4.6

query: Item under review: `Cc1ccc(C(=O)N(Cc2ccc(F)cc2)C2CC2)c(=O)[nH]1` . Reported cytotoxicity at 10 µM?
result: -1.4

query: Can you look up the measured cytotoxicity at 10 µM of `Cc1cc(N2CCC(C(=O)N(C)C)CC2)nc(-c2ccncc2)n1` for me?
result: -17.1

query: Give the measured cytotoxicity at 10 µM of `COc1ccc(NCC2(O)CCNCC2)cc1OC` .
result: 6.2

query: Looking for the measured cytotoxicity at 10 µM of `COCc1noc(-c2nn(-c3ccccc3F)c3c2CCC3)n1` , can you help?
result: -2.68

query: What measured cytotoxicity at 10 µM goes with `COc1ccc(CN2CC[C@@H]3CN(S(C)(=O)=O)CCO[C@@H]3C2)cc1` ?
result: -1.55

###

PROCEDURE SUMMARY: Toxicity liver stage against HepG2, at 10uM
Format: cell-based
Parameters: test concentration 10 uM, cell line HepG2-A16-CD81EGFP
SETTINGS: human, HepG2-A16-CD81EGFP cells; read-out: INHIBITION
MEASUREMENT NAME: cytotoxicity at 10 µM

{"columns": ["MOLECULE", "cytotoxicity at 10 µM"],
 "data": [
  ["COc1cccc(C(=O)N2CCc3c(nc(N)[nH]c3=O)C2)c1OC", "-9.91%"],
  ["COc1cccc(OC)c1CN1CC(=O)N(c2ccc(C)cc2)CC1C (configuration not stated)", "1.64%"],
  ["CCn1ccnc1CN1CCN(CCc2ccncc2)CC1C (configuration not stated)", "-3.04%"],
  ["CCc1nccn1CCC(=O)N1CC(=O)N(c2ccccc2C)CC1C (configuration not stated)", "-15%"],
  ["CCc1nc(C)c(C(=O)N2C[C@@H]3CC[C@H]2CN(S(=O)(=O)N(C)C)C3)s1", "25%"],
  ["CS(=O)(=O)NCc1cncc2c1CCN(CC1CCOC1)C2 (configuration not stated)", "12.7%"]
]}

query: If you can, please state the reported cytotoxicity at 10 µM value of Fc1ccc(C2(CNCCc3cccs3)CCOC2)cc1 (configuration not stated) .
result: -149%

query: Requested field: cytotoxicity at 10 µM. Item: CN(Cc1ccncc1)C(CO)c1cccc(F)c1 (configuration not stated)
result: 2.35%

query: Endpoint output: cytotoxicity at 10 µM of Cc1nnc(N2CCCC3(CN(Cc4nccn4C)CCO3)C2)o1 (configuration not stated) . Value?
result: -6.83%

query: Which value of cytotoxicity at 10 µM has been reported for `O=C1O[C@@H]2CN(S(=O)(=O)N3CCCC3)C[C@@H]2N1CCc1cccc(Cl)c1` in the records?
result: -2.9%

query: Which cytotoxicity at 10 µM value is on record for `COc1cc(Cl)c(NC(=O)c2cc3c([nH]c2=O)CCCC3=O)cc1OC` ?
result: -5.21%

query: Need cytotoxicity at 10 µM of O=S(=O)(CCc1ccccc1Cl)CC(O)CO (configuration not stated) , thanks.
result: 10.7%
